Measured pIC50 by item
Target: Akt3 (Homo sapiens)
Construct: endogenous in cells; host or cells: primary human CD4+/CD45RA+/CD25- naive T cells
Experiment: Akt3 inhibition activity of selected compounds
Type: cell-based
Conditions: Table 1
pIC50: −log10 of the molar value.

Use these answered entries as a reference point.
Cc1cc(Nc2cccc(C(=O)Nc3cc(Nc4ccncc4)ccn3)c2)cc(N)n1 [Compound 125]	> 5.30
O=C(c1cccc(Nc2ccnc3ccc(F)cc23)c1)N1CCc2c(Nc3ccncc3)cccc21 [Compound 67]	> 5.70
Cc1cc(Nc2ccc3c(c2)CN(c2cccc(Nc4ccc(F)cc4)c2)C3=O)ccn1 [Compound 120]	> 7.00

For Cc1c(Nc2cccc(C(=O)Nc3cc(Nc4ccncc4)ccn3)c2)ccnc1N [Compound 127] the compound record lists pIC50 as > 5.30

###

Target: Akt3 (Homo sapiens)
Construct: endogenous in cells; host or cells: primary human CD4+/CD45RA+/CD25- naive T cells
Experiment: Akt3 inhibition activity of selected compounds
Assay type: cell-based
Settings: Table 1
readout.name: IC50

Use these answered entries as a reference point.
Cc1cc(Nc2cccc(C(=O)Nc3cccc(Nc4ccccc4)c3)c2)ccn1 [Compound 99]	< 2 µM
Nc1cc(Nc2cccc(C(=O)Nc3cccc(Nc4ccccc4)c3)c2)ccn1 [Compound 130]	< 1 µM
Cc1cc(Nc2cccc(C(=O)Nc3cccc(Nc4ccccc4)c3)c2)ccn1 [Compound 109]	< 1 µM
O=C(Nc1cc(Nc2ccncc2)ccn1)c1cccc(Nc2cccc3ncccc23)c1 [Compound 126]	< 1 µM
O=C1c2ccc(Nc3ccncc3)cc2CN1c1cccc(NC2CCCC2)c1 [Compound 132]	< 1 µM

Now examine the next entry.
For C#Cc1ccc2nccc(Nc3cccc(C(=O)Nc4cccc(Nc5ccncc5)c4)c3)c2c1 [Compound 4] the molecule record lists IC50 as < 1 µM

###

Measured pIC50 by item
Target: Akt3 (Homo sapiens, UniProt Q9Y243)
Construct: endogenous in cells; host or cells: primary human CD4+/CD45RA+/CD25- naive T cells
Sequence (Q9Y243 whole entry): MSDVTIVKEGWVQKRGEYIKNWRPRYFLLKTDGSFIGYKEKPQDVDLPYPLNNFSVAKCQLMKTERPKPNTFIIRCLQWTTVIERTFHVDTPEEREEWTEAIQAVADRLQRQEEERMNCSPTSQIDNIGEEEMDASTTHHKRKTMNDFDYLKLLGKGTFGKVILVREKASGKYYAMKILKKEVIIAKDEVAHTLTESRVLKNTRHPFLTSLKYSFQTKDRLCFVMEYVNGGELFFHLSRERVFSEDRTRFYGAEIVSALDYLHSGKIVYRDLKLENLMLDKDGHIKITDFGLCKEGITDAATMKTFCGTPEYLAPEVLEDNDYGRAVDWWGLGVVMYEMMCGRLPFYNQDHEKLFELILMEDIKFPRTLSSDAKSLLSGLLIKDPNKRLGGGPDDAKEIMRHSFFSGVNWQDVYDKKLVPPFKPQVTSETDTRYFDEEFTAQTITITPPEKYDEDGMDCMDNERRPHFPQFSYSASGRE
Test: Akt3 inhibition activity of selected compounds
Format: cell-based
Details: Table 1
pIC50: −log10 of the molar value.

Cc1c(Nc2cccc(C(=O)Nc3cccc(Nc4ccccc4)c3)c2)ccnc1N	> 5.30

For O=C(Nc1cc(Nc2ccncc2)ccn1)c1cccc(Nc2ccnc3ccccc23)c1 the molecule record lists pIC50 as > 6.00

For Cc1nccc(Nc2ccc3c(c2)CN(c2cccc(Nc4ccncc4)c2)C3=O)c1Cl the molecule record lists pIC50 as > 5.70

For O=C(Nc1cccc(Nc2ccccc2)c1)c1cccc(Nc2ccncc2)c1 the molecule record lists pIC50 as > 5.30

For Cc1cc(Nc2ccc3c(c2)CN(c2cccc(Nc4cccc(F)c4)c2)C3=O)ccn1 the molecule record lists pIC50 as > 6.30

For N#Cc1nccc(Nc2cccc(NC(=O)c3cccc(Nc4ccnc5ccc(F)cc45)c3)c2)c1C(F)(F)F the molecule record lists pIC50 as > 5.30

For O=C(Nc1cccc(Nc2ccncc2)n1)c1cccc(Nc2ccnc3ccc(F)cc23)c1 the molecule record lists pIC50 as > 5.70

For O=C(Nc1cc(Oc2ccccc2)ccn1)c1cccc(Nc2ccncc2)c1 the molecule record lists pIC50 as > 5.30

###

Molecular target: Akt3 (Homo sapiens)
Construct: endogenous in cells; host or cells: primary human CD4+/CD45RA+/CD25- naive T cells
Assay: Akt3 activation activity of selected compounds
Format: cell-based
Details: Table 2
readout.name: IC50

Cc1cc(Nc2cccc(NC(=O)c3cccc(Nc4ccnc5ccc(N(C)C)cc45)c3)c2)ccn1	< 1000 nM
CN(C)c1ccc2nccc(Nc3cccc(C(=O)Nc4cccc(Nc5ccncc5)c4)c3)c2c1	< 1000 nM
N#Cc1ccc2nccc(Nc3cccc(C(=O)Nc4cccc(Nc5ccncc5)c4)c3)c2c1	< 2000 nM

The measured IC50 that CS(=O)(=O)c1ccc2nccc(Nc3cccc(C(=O)Nc4cccc(Nc5ccncc5)c4)c3)c2c1 showed for Akt3 (Homo sapiens) is < 5000 nM

The measured IC50 that Cc1cc(Nc2ccnc(NC(=O)c3cccc(Nc4ccnc5ccc(N(C)C)cc45)c3)c2)ccn1 showed for Akt3 (Homo sapiens) is < 1000 nM

The measured IC50 that N#Cc1ccc2nccc(Nc3cccc(-c4nc5ccc(Nc6ccncc6)nc5[nH]4)c3)c2c1 showed for Akt3 (Homo sapiens) is < 2000 nM

The measured IC50 that Cc1cc(Oc2cccc(NC(=O)c3cncc(Nc4ccnc5ccc(N(C)C)cc45)c3)c2)ccn1 showed for Akt3 (Homo sapiens) is < 2000 nM

The measured IC50 that N#Cc1ccc2nccc(Nc3cccc(C(=O)Nc4cc(Nc5ccncc5)ccn4)c3)c2c1 showed for Akt3 (Homo sapiens) is < 5000 nM

###

Molecular target: Akt3 (Homo sapiens, UniProt Q9Y243)
Construct: endogenous in cells; host or cells: primary human CD4+/CD45RA+/CD25- naive T cells
Assay: Akt3 inhibition activity of selected compounds
Format: cell-based
Conditions: Table 1
readout.name: IC50

Cc1cc(Nc2ccc3c(c2)CN(c2cccc(Nc4ccncc4)c2)C3=O)ccn1	< 1000 nM
N#Cc1cc(Nc2cccc(NC(=O)c3cccc(Nc4ccnc5ccc(F)cc45)c3)c2)ccn1	< 1000 nM
[N-]=[N+]=Nc1ccc2nccc(Nc3cccc(C(=O)Nc4cccc(Nc5ccncc5)c4)c3)c2c1	< 1000 nM
Nc1cc(Nc2cccc(C(=O)Nc3cc(Nc4ccncc4)ccn3)c2)ccn1	< 5000 nM
O=C(Nc1cccc(Oc2ccncc2)c1)c1cccc(Nc2ccnc3ccc(F)cc23)c1	< 500 nM
O=C1c2ccc(Nc3ccncc3)cc2CN1c1cccc(Nc2ccncc2)c1	< 500 nM
O=C(Nc1cccc(Nc2ccncc2)n1)c1cccc(Nc2ccncc2)c1	< 5000 nM

For Cc1cc(Nc2cccc(C(=O)Nc3cccc(Nc4ccccc4)c3)c2)cc(N)n1 the compound record lists IC50 as < 10000 nM
